Catalogue of IC50 values
assay target: PI3Kβ (Homo sapiens)
Construct: N-terminal His6-tagged recombinant full-length human p110β; His6 (N)
Sequence (P42338 whole entry): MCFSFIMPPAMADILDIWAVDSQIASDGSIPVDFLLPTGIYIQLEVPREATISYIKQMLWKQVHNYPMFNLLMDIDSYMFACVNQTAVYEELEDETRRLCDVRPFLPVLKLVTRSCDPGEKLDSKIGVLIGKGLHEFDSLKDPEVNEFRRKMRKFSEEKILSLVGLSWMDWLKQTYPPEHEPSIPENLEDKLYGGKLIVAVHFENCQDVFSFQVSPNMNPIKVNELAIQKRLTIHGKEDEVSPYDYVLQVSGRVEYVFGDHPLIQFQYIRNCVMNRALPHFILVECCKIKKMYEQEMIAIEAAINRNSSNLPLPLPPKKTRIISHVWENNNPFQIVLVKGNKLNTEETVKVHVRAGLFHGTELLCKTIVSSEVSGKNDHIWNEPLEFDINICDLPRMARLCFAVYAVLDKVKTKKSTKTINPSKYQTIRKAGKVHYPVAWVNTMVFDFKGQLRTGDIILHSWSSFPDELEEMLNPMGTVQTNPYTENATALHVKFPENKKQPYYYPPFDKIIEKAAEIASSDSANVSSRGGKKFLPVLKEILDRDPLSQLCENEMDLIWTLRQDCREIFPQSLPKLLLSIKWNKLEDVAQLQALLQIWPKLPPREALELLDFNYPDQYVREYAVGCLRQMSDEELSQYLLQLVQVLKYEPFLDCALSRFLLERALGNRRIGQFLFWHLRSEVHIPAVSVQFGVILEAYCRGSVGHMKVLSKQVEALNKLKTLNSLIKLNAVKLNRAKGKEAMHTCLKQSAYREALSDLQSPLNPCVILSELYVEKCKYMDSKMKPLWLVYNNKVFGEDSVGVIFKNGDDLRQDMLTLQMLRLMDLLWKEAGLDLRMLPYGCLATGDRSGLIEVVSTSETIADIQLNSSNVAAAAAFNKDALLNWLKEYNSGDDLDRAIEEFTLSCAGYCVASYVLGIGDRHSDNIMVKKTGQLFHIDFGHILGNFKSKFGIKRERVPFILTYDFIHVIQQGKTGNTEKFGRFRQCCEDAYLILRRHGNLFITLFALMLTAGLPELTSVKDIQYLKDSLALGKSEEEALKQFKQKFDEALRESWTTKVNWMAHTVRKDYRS
Sequence (P27986 whole entry partner): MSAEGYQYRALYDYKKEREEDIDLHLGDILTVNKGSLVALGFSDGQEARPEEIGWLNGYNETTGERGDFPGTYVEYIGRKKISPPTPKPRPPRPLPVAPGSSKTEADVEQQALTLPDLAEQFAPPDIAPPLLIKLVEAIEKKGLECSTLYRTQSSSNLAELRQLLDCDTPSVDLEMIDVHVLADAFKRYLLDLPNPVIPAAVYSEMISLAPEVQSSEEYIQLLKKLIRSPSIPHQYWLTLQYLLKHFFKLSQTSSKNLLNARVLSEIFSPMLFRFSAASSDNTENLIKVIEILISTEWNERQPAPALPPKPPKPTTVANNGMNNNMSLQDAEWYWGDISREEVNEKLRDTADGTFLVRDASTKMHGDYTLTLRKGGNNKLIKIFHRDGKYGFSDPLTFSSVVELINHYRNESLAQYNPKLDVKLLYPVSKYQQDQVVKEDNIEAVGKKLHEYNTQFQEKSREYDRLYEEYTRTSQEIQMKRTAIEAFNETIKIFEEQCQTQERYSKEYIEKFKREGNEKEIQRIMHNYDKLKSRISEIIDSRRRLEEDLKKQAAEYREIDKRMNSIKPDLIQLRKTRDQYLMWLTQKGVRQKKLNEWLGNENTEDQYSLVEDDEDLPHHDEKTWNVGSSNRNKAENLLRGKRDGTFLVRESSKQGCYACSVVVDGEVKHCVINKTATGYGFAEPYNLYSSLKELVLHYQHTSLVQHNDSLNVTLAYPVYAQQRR
assay comment: PI3Kβ kinase assay (HTRF based PI3K inhibition assay)
condition details: complex of human p110β and human p85α; 10 μM ATP, 10 μM PIP2; read-out: average IC50 in the PI3K beta biochemical assay

CC(C)N(C[C@@H](O)COc1ccc2c(c1OCCc1ccc(F)cc1)N=C(NC(=O)c1cccnc1)N1CCN=C21)C(C)C | 10 to 50 nM
C[C@@H]1CN(C[C@@H](O)COc2ccc3c(c2OCCc2ccc(F)cc2)N=C(NC(=O)c2cccnc2)N2CCN=C32)C[C@H](C)O1 | 10 to 50 nM

Consider the additional compound presented here.
Looking up C[C@@H]1CN(C[C@@](C)(O)COc2ccc3c(c2OCCc2ccc(F)cc2)N=C(NC(=O)c2cnc(N)nc2)N2CCN=C32)C[C@H](C)O1 (relative stereo) , I see its IC50 listed as 10 to 50 nM

Cited source for all entries: patent US9730943B2
